system: HePG2 cell line; experiment: In vitro antitumor MTT assay, HePG2; format: cell-based; details: Homo sapiens, HepG2, read-out: IC50 (µM) HePG2
MEASURED_QUANTITY: IC50 (µM)
Numbers only here, please. The scale is µM.

Before answering, review these 3 worked examples.
- COc1ccc(-c2nc3c4ccccc4c4ccccc4c3[nH]2)cc1OC1CCCC1: 78.2
- COc1ccc(-c2nc3c4ccccc4c4ccccc4c3n2-c2ccc(Cl)cc2)cc1OC1CCCC1: 29.9
- Cc1ccc(-c2cc(C(F)(F)F)nn2-c2ccc(S(N)(=O)=O)cc2)cc1 [Celecoxib, celecoxib, reference compound]: 25.6

Next molecule, please.
Reported IC50 of `COc1ccc(-c2nc3c4ccccc4c4ccccc4c3n2-c2ccc(C)cc2)cc1OC1CCCC1` : 57.1

---

biological target: PDE4B (Homo sapiens); experiment: PDE4B inhibition assay; assay type: biochemical; conditions: read-out: IC50 (µM) PDE-4B inhibition
Sequence (Q07343 whole entry): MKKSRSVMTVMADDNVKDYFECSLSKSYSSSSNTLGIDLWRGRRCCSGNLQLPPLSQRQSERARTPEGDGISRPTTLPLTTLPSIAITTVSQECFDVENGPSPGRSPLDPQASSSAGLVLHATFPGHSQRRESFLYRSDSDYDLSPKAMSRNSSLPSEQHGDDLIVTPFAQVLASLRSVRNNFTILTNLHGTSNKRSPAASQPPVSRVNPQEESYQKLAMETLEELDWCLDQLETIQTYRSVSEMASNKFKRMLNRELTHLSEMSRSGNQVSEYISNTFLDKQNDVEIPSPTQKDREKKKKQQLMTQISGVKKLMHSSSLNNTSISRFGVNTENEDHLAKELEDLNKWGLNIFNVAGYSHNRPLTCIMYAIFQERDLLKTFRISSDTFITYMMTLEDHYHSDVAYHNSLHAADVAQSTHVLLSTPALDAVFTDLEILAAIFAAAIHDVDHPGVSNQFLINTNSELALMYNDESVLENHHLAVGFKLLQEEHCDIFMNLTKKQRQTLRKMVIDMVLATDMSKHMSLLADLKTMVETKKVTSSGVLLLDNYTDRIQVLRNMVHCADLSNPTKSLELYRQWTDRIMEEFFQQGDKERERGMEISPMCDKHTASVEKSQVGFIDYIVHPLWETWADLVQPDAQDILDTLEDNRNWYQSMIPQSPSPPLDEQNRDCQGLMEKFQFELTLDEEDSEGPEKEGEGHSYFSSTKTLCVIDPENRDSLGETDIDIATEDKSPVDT
Known IC50 of a selection of molecules
Quick note: give the figure in µM, leave out the unit.

Study these solved cases before continuing.
• COc1ccc(C=C2CN(C)CCC2=O)cc1OC1CCCC1 [Compound 4a] = 5.62
• COc1ccc(-c2[nH]c(=S)[nH]c(=O)c2C#N)cc1OC1CCCC1 [Compound 13] = 3.98
• CCN1CCC(=O)C(=Cc2ccc(OC)c(OC3CCCC3)c2)C1 [Compound 4b] = 11.6

Now look at this one.
The measured IC50 associated with COc1ccc(-c2nc3c4ccccc4c4ccccc4c3n2-c2ccccc2)cc1OC1CCCC1 [Compound 7b] reads 5.65

---

system: HeLa cell line; assay: In vitro antitumor MTT assay, HeLa; format: cell-based; settings: Homo sapiens; read-out: IC50 (µM) HeLa
MEASURED_QUANTITY: IC50 (µM)
Please state the figure in µM; there is no need to write the unit.

Example results:
• COc1ccc(C=C2CCCC2=O)cc1OC1CCCC1 [Compound 3a] = 59.1
• COc1ccc(-c2nc3n(c(=O)c2C#N)C(=O)CS3)cc1OC1CCCC1 [Compound 14] = 12.5
• COc1ccc(-c2nc3c4ccccc4c4ccccc4c3n2-c2ccccc2)cc1OC1CCCC1 [Compound 7b] = 17.2
• COc1ccc(C=C2CCCCCC2=O)cc1OC1CCCC1 [Compound 3c] = 81.7
• COc1ccc(C=C2CCCCC2=O)cc1OC1CCCC1 [Compound 3b] = 26.1

Briefly, IC50 measured for COc1ccc(C2C3=C(CC(C)(C)CC3=O)NC3=C2C(=O)CC(C)(C)C3)cc1OC1CCCC1 [Compound 8] : 43.5

Lookup result for COc1ccc(C2NC(=O)NC3=C2C(=O)CC(C)(C)C3)cc1OC1CCCC1 (stereo not shown) [Compound 6a] ; measured IC50: 19.1

Lab note: measured IC50 of COc1ccc(C(=S)N2CCCCC2)cc1OC1CCCC1 [Compound 9b] was 28.4

// sample COc1ccc(C(=S)N2CCOCC2)cc1OC1CCCC1 [Compound 9a] , its IC50 was 37.5

Measured IC50, COc1ccc(-c2cc(-c3ccc(Cl)c(Cl)c3)[nH]c(=O)c2C#N)cc1OC1CCCC1 [Compound 12c] : 62.8

Just so you know, measured IC50 for COc1ccc(C(=S)N2CCN(C(=O)OC(C)(C)C)CC2)cc1OC1CCCC1 [Compound 9c] came out at 40.6

Lab note: COc1ccc(C2NC(=S)NC3=C2C(=O)CC(C)(C)C3)cc1OC1CCCC1 (stereo not shown) [Compound 6b] gave IC50 of 13.5

Per the records, this compound ( CN(C)C/C=C/C(=O)Nc1cc2c(Nc3ccc(F)c(Cl)c3)ncnc2cc1O[C@H]1CCOC1 [Afatinib, afatinib, reference compound] ) has IC50 equal to 6.2

---

system: MCF-7 cell line; assay: In vitro antitumor MTT assay, MCF-7; type: cell-based; settings: Homo sapiens, MCF7; read-out: IC50 (µM) MCF-7
Here the recorded IC50 is given for each entry.
Quick note: give the figure in µM, leave out the unit.

• CN(C)C/C=C/C(=O)Nc1cc2c(Nc3ccc(F)c(Cl)c3)ncnc2cc1O[C@H]1CCOC1 [Afatinib, afatinib, reference compound] = 7.1
• COc1ccc(C2C3=C(CC(C)(C)CC3=O)NC3=C2C(=O)CC(C)(C)C3)cc1OC1CCCC1 = 60.5

Shifting focus to the compound that follows.
Record `COc1ccc(C(=S)Nc2ccc(F)cc2)cc1OC1CCCC1` ; system MCF-7 cell line; IC50 = 64.1

---

tested on: HePG2 cell line; assay: In vitro antitumor MTT assay, HePG2; type: cell-based; details: Homo sapiens, HepG2; read-out: IC50 (µM) HePG2
MEASURED_QUANTITY: IC50

- COc1ccc(C2C3=C(CC(C)(C)CC3=O)NC3=C2C(=O)CC(C)(C)C3)cc1OC1CCCC1: 41.8 µM
- COc1ccc(-c2cc(-c3ccccc3)[nH]c(=O)c2C#N)cc1OC1CCCC1 [Compound 12a]: 45.2 µM

Memo: `COc1ccc(-c2nc3c4ccccc4c4ccccc4c3n2-c2ccccc2)cc1OC1CCCC1` , reported IC50: 13.7 µM

---

test system: HCT-116 cell line; assay: In vitro antitumor MTT assay, HCT-116; assay type: cell-based; details: Homo sapiens, HCT-116; read-out: IC50 (µM) HCT-116
log10 IC50 overview
A difference of one corresponds to tenfold IC50; all values are log10 with IC50 in µM.

- COc1ccc(C(=S)N2CCCCC2)cc1OC1CCCC1: 1.59
- COc1ccc(C=C2CCCCC2=O)cc1OC1CCCC1: 1.91
- COc1ccc(-c2nc3n(c(=O)c2C#N)C(=O)CS3)cc1OC1CCCC1: 1.54
- COc1ccc(C(=S)N2CCN(C(=O)OC(C)(C)C)CC2)cc1OC1CCCC1: 1.72
- COc1ccc(C(=S)Nc2ccc(F)cc2)cc1OC1CCCC1: 1.90
- COc1ccc(C2NC(=O)NC3=C2C(=O)CC(C)(C)C3)cc1OC1CCCC1 (stereo not drawn): 1.48
- COc1ccc(-c2[nH]c(=S)[nH]c(=O)c2C#N)cc1OC1CCCC1: 0.88

Form: compound = `COc1ccc(C2C3=C(CC(C)(C)CC3=O)NC3=C2C(=O)CC(C)(C)C3)cc1OC1CCCC1` ; log10 IC50 = 1.85

---

tested on: MCF-7 cell line; assay: In vitro antitumor MTT assay, MCF-7; assay type: cell-based; conditions: Homo sapiens, MCF7; read-out: IC50 (µM) MCF-7
MEASURED_QUANTITY: IC50

Would you please look over these solved cases?
* COc1ccc(C=C2CCCCCC2=O)cc1OC1CCCC1 [Compound 3c] | > 100 µM
* COc1ccc(-c2cc(-c3ccc(Cl)c(Cl)c3)[nH]c(=O)c2C#N)cc1OC1CCCC1 [Compound 12c] | 66.1 µM
* COc1ccc(C(=S)N2CCN(C(=O)OC(C)(C)C)CC2)cc1OC1CCCC1 [Compound 9c] | 48.9 µM
* COc1ccc(C(=S)N2CCCCC2)cc1OC1CCCC1 [Compound 9b] | 37.1 µM
* COc1ccc(C2NC(=S)NC3=C2CCCC3)cc1OC1CCCC1 (stereo not drawn) [Compound 5a] | 92.4 µM

Field IC50 (entry COc1ccc(C=C2CCCCC2=O)cc1OC1CCCC1 [Compound 3b] ) reads 23.8 µM

COc1ccc(C2NC(=S)NC3=C2CCCCC3)cc1OC1CCCC1 (stereo not drawn) [Compound 5b] has a reported IC50 of 81.2 µM

Record COc1ccc(C=C2CCCC2=O)cc1OC1CCCC1 [Compound 3a] , field IC50: 56.1 µM

// IC50 value for COc1ccc(-c2[nH]c(=S)[nH]c(=O)c2C#N)cc1OC1CCCC1 [Compound 13] : 6.93 µM

Memo: CCN1CCC(=O)C(=Cc2ccc(OC)c(OC3CCCC3)c2)C1 [Compound 4b] , reported IC50: 7.18 µM

Recorded result, COc1ccc(-c2nc3n(c(=O)c2C#N)C(=O)CS3)cc1OC1CCCC1 [Compound 14] , IC50: 9.62 µM

Consider COc1ccc(-c2cc(-c3ccc(C)cc3)[nH]c(=O)c2C#N)cc1OC1CCCC1 [Compound 12b] . Its measured IC50 is 58.3 µM

---

test system: HeLa cell line; assay: In vitro antitumor MTT assay, HeLa; assay type: cell-based; settings: Homo sapiens; read-out: IC50 (µM) HeLa
Entries and their measured IC50 follow.
Write the figure, then the unit, nothing else.

# annotated cases, reported IC50 shown
* COc1ccc(C(=S)Nc2ccc(F)cc2)cc1OC1CCCC1 | 52.5 µM
* COc1ccc(-c2[nH]c(=S)[nH]c(=O)c2C#N)cc1OC1CCCC1 | 5.86 µM
* COc1ccc(C2NC(=S)NC3=C2CCCCC3)cc1OC1CCCC1 (stereo not drawn) | 46.3 µM
* CCN1CCC(=O)C(=Cc2ccc(OC)c(OC3CCCC3)c2)C1 | 8.56 µM
* COc1ccc(C(=S)N(C)C)cc1OC1CCCC1 | 90.9 µM

response.value for COc1ccc(C2NC(=S)NC3=C2CCCC3)cc1OC1CCCC1 (stereo not drawn) (field: IC50) = 84.3 µM

Reference source: paper PMC7144195
